Test system: HepG2
Test: GSK_TCMDC: Percent inhibition of human HepG2 cell line. Test compounds present at 10uM.
Assay type: functional
recorded-endpoint: Inhibition (%)
Numbers only; they are read as %.

Here's what some known entries look like.
COc1cccc(CN2CCCC(CCC(=O)Nc3ccc(C(F)(F)F)cc3)C2)c1O (stereo unspecified); 15
CCCN(CCC)C(=S)N/N=C1/C(=O)Nc2ccccc21; 28
COc1ccc(NC(=O)Nc2cccc(-c3cccc(-c4nc5cccc(C)c5[nH]4)c3)c2)cc1; 0
CNCc1cccc2nc(-c3ccc(Cc4cc(Cl)ccc4OCC(C)C)o3)[nH]c12.Cl; 20
N#Cc1ccc(/C=C/C(=O)NCCCCCN2CCN(C(=O)Nc3ccc(Cl)c(C(F)(F)F)c3)CC2)cc1; 42
COc1ccc(C(C(=O)NC2CCN(C[C@H](O)c3ccnc4ccc(OC)cc34)CC2)N2CCN(c3ccc(F)cc3)CC2)cc1 (stereo partly specified); 16
c1ccc2c(c1)ncc1c3ccccc3[nH]c21; 0
O=c1cc(NCCC(CNCc2ccc(Br)o2)NCc2cc(Br)cc(Br)c2)[nH]c2ccccc12 (stereo unspecified); 2
COc1ccc(S(=O)(=O)NCCC2CCN(CCCCCNC(=O)C=Cc3ccc(Cl)c(Cl)c3)CC2)cc1; 36
CCOC(=O)c1cc(C(=O)NCCCCN2CCC(c3ccc4c(c3OC)CCCC4)CC2)ccc1-c1ccc(C(F)(F)F)cc1; 100

q: Please report the recorded Inhibition for `Clc1ccc(CNc2nc(NCCc3c[nH]cn3)nc(NC3CCCCC3)n2)cc1` .
a: 0

q: Please report the recorded Inhibition for CC(C)c1ccc2[nH]c(C(=O)NC3CCC(N4CCCc5ccc(C#N)cc5C4)CC3)cc2c1 (stereo unspecified) .
a: 48

q: Please report the recorded Inhibition for `FC(F)(F)c1ccc2[nH]c(-c3cccc(-c4cccc(CNCCc5ccncc5)c4)c3)nc2c1.O=C(O)C(F)(F)F` .
a: 31

q: Please report the recorded Inhibition for `COc1ccc(CNC(=O)NC2CCN(c3ccnc(Nc4ccc(F)cc4)n3)CC2)cc1` .
a: 16

q: Please report the recorded Inhibition for `CCC[C@@H]([C@@H](CC1CCCCC1)C(=O)N[C@H](C(=O)Nc1nccs1)C(C)(C)SCCNC(=O)OCc1ccccn1)N(O)C=O` .
a: 17

q: Please report the recorded Inhibition for `COCCCNc1sc(S(=O)(=O)c2ccccc2)nc1S(=O)(=O)c1ccc(C)cc1` .
a: 7

q: Please report the recorded Inhibition for `COc1ccc(CN(C)CCCCc2ccc(NC(=O)COc3cccc4sc5ccccc5c(=O)c34)cc2)cc1OC.O=C(O)C(=O)O` .
a: 26

q: Please report the recorded Inhibition for `Fc1ccc(-c2oc(C3CCN(CCc4ccc(-c5noc(=S)[nH]5)cc4)CC3)nc2COCC(F)(F)F)cc1` .
a: 5

q: Please report the recorded Inhibition for `CCNc1cc(C(=O)N[C@@H](Cc2ccccc2)[C@H](O)CNCc2cccc(OC)c2C)cc(N2CCCCS2(=O)=O)c1.O=CO` .
a: 8

====

Tested on: Plasmodium falciparum
Experiment: GSK_TCMDC: Inhibition of Plasmodium falciparum 3D7 in whole red blood cells, using parasite LDH activity as an index of growth. Test compounds present at 2uM
Type: functional
recorded-endpoint: Inhibition (%)
Numbers only; they are read as %.

q: Please report the recorded Inhibition for `CCc1ccc(NC(=O)c2cccc(CN3CCCN(Cc4cccc(O)c4)CC3)c2)cc1.O=C(O)C(F)(F)F` .
a: 99

q: Please report the recorded Inhibition for `FC(F)(F)c1cccc(CNCC2CCN(Cc3ccc4c(c3)OCO4)CC2)c1.O=C(O)C(F)(F)F` .
a: 100

====

Test system: Plasmodium falciparum
Assay: GSK_TCMDC: Inhibition of Plasmodium falciparum 3D7 in whole red blood cells, using parasite LDH activity as an index of growth. Test compounds present at 2uM
Format: functional
recorded-endpoint: Inhibition (%)
Numbers only; they are read as %.

Br.Oc1ccc(CNCCCCCCNCCc2ccc(Cl)cc2)cc1O; 94

q: Please report the recorded Inhibition for `COc1ccc(Cn2c(=O)[nH]c3cc(C(=O)NC4CCN(Cc5ccccc5)CC4)ccc3c2=O)cc1` .
a: 97

====

Test system: Plasmodium falciparum
Assay: GSK_TCMDC: Inhibition of Plasmodium falciparum Dd2 in whole red blood cells, using parasite LDH activity as an index of growth. Test compounds present at 2uM
Assay type: functional
recorded-endpoint: Inhibition (%)
Numbers only; they are read as %.

Cl.Oc1ccc2ccccc2c1CNCCC1CCCCC1; 99
N=C(/N=C(/NCCCCCCN/C(=N\C(=N)Nc1ccc(Cl)cc1)N1CCOCC1)N1CCOCC1)Nc1ccc(Cl)cc1; 91
COc1ccc(Oc2ccc(-c3c(C)[nH]c(C)c(Cl)c3=O)cc2)cc1; 97
CC(=O)N1Cc2ccccc2C1=O; 0

Now consider the entry below.
q: Please report the recorded Inhibition for `O=C(NCc1ccc(C(=O)NCc2cccc3ccccc23)cc1)c1ccc(O)c(-c2ccc(Cl)c(Cl)c2)c1` .
a: 31

====

Tested on: HepG2
Assay: GSK_TCMDC: Percent inhibition of human HepG2 cell line. Test compounds present at 10uM.
Format: functional
recorded-endpoint: Inhibition (%)
Numbers only; they are read as %.

COc1ccc2[nH]cc(C3CCN(CCC4CCN(C(=O)/C=C/c5ccc(Cl)c(Cl)c5)CC4)CC3)c2c1; 52
Cn1nc(-c2cccc(CNC3CCc4ccccc43)c2)c2cnc(NC3CCCC3)nc21 (centres undefined); 14
CS(=O)(=O)c1ccc(CNCc2ccc(-c3ccc(-c4nc5cc(C(F)(F)F)ccc5[nH]4)cc3)cc2)cc1.O=C(O)C(F)(F)F; 26

Now consider the entry below.
q: Please report the recorded Inhibition for Cc1cc(C(=O)Nc2ccc3c(c2)CCN3C2CCN(Cc3csc4ccccc34)C2)no1 (centres undefined) .
a: 1

====

Tested on: Plasmodium falciparum
Experiment: GSK_TCMDC: Inhibition of Plasmodium falciparum 3D7 in whole red blood cells, using parasite LDH activity as an index of growth. Test compounds present at 2uM
Format: functional
recorded-endpoint: Inhibition (%)
Numbers only; they are read as %.

O=C(NC1CCN(CCC[C@]2(c3ccc(Cl)c(Cl)c3)CCCN(C(=O)c3ccccc3)C2)CC1)c1ccc(F)cc1; 90

q: Notebook: pull reported Inhibition for Plasmodium falciparum, entry O=C(NCC1CCN(CC2CCCCC2)C1)c1cc(-c2cccc(C(F)(F)F)c2)cs1.O=C(O)C(F)(F)F (stereo not drawn)
a: 96

q: Notebook: pull reported Inhibition for Plasmodium falciparum, entry `O=C(NCCc1ccccc1)N(Cc1ccccc1-c1ccc(CNC2CCCC2)cc1)C1CCN(Cc2ccccc2)CC1.O=C(O)C(F)(F)F`
a: 96

q: Notebook: pull reported Inhibition for Plasmodium falciparum, entry `CCOc1ccc(C(=O)Nc2cc(Br)c3c(c2)CNCC3)cc1C#N.Cl`
a: 97

q: Notebook: pull reported Inhibition for Plasmodium falciparum, entry O=c1cc(NCCCNC(CNCCc2ccccc2)c2cc(Br)cc(Br)c2)[nH]c2ccccc12 (stereo not drawn)
a: 93

q: Notebook: pull reported Inhibition for Plasmodium falciparum, entry `COc1ccccc1-c1[nH]c2ccccc2c1CN1CCC(c2c(C)cccc2C)CC1`
a: 96

====

The entries below come with measured Inhibition values attached.
Test system: Plasmodium falciparum
Assay: GSK_TCMDC: Inhibition of Plasmodium falciparum Dd2 in whole red blood cells, using parasite LDH activity as an index of growth. Test compounds present at 2uM
Type: functional
Numbers only; they are read as %.

Cc1nc2ccc3ccc(CNc4ccc5c(c4)CN([C@H](CCC(=O)O)C(=O)O)C5=O)cc3c2c(=O)[nH]1; 90

q: Please report the recorded Inhibition for Cc1ccc(-c2nnc(Nc3ccc(CC(N)=O)cc3)c3ccccc23)cc1S(=O)(=O)NCC1CCCO1 (stereo not drawn) .
a: 64

q: Please report the recorded Inhibition for `CC(C)(C)NCCN(Cc1ccc(-c2ccc(C(F)(F)F)cc2)cc1)C(=O)Cn1c(SCc2ccc(F)cc2)nc(=O)c2c1CCC2.O=C(O)C(O)C(O)C(=O)O` .
a: 84

q: Please report the recorded Inhibition for `COc1ccc(C=NN=c2cc(C)[nH]c3ccccc23)c2ccccc12` .
a: 69

====

Test system: HepG2
Experiment: GSK_TCMDC: Percent inhibition of human HepG2 cell line. Test compounds present at 10uM.
Assay type: functional
API: label(entry) gives fulfilled if the entry's Inhibition is strictly smaller than 30%; on equality or larger values it gives not fulfilled.

Illustrative cases are given below, each with its answer.
CC(=O)Nc1ncc(C(=O)Nc2cccc(-c3cccc(-c4nc5ccccc5[nH]4)c3)c2)s1; fulfilled
CCCCCCN1CCC(NCc2cccc([N+](=O)[O-])c2)CC1.O=C(O)C(F)(F)F; fulfilled
Nc1ncnc2nc(-c3ccc(F)cc3)cc(-c3ccc(NC(=O)c4ccccc4)cc3)c12; fulfilled

q: Please determine if COc1cccc(C2CCCN(CCCCNC(=O)c3ccc(NC(=O)c4ccc(Cl)cc4)cc3)C2)c1 (stereo not drawn) is below 30% in terms of Inhibition.
a: fulfilled

q: Please determine if `Br.CCCCCCCNCCNc1cc(C)nc2ccccc12` is below 30% in terms of Inhibition.
a: not fulfilled

q: Please determine if `C#CCNCc1ccc(-c2ccc(-c3nc4cc(C(F)(F)F)ccc4[nH]3)s2)cc1.O=C(O)C(F)(F)F` is below 30% in terms of Inhibition.
a: not fulfilled
